# credit: PubChem BioAssay AID248

Give measured T/C for each item. Keep answers brief.
# Tested on: L1210 leukemia ip in BDF1 mice, survival T/C
# PROTOCOL_TEXT: NCI In Vivo Anticancer Drug Screen. Data for tumor model L1210 Leukemia (intraperitoneal) in B6D2F1 (BDF1) mice
# DETAILS: endpoint: mean survival time; dose: 25.0 mg/kg/injection; schedule: Q01DX009 (ip); vehicle: saline with Tween-80; higher = longer survival
# Method: The antitumor activity of compounds was measured in mice bearing transplantable tumors. Survival or tumor size were measured and the results are expressed as the measurement made in the treated group (T) divided by the measurement made in the vehicle treated control group (C). The tumor model used in this assay is L1210 Leukemia (intraperitoneal) in B6D2F1 (BDF1) mice
Toxic doses and inconclusive results are not listed.

Consider the molecule COC(=O)c1ccc(CBr)cc1 and give its measured T/C.
97 % of control

Would you mind telling me what T/C value was observed for CCCCCCCCCCCC1=NCCN1 ?
93 % of control

Name the reported T/C value associated with the molecule CC1(C)CCC(C#N)=C1N
105 % of control

Which T/C is listed for COC(=O)c1ccc(Cl)c(Cl)c1 ?
110 % of control

Consider the molecule shown here: c1ccc2sc(SCCSc3nc4ccccc4s3)nc2c1 What is its recorded T/C?
95 % of control

Sample CSc1ccc(NC(=O)CCl)cc1 — what was its T/C?
97 % of control
